System: Calu-3
Test: cell viability relative to DMSO; higher = less toxic
Settings: 72 h; 10000 nM
attribute_measured: cell viability (%)

molecule	meas_value
CCCSc1nc(N[C@@H]2C[C@H]2c2ccc(F)c(F)c2)c2nnn([C@@H]3C[C@H](OCCO)[C@@H](O)[C@H]3O)c2n1 [ticagrelor]	104
CC[C@]1(O)C[C@@H]2CN(CCc3c([nH]c4ccccc34)[C@@](C(=O)OC)(c3cc4c(cc3OC)N(C)[C@H]3[C@@](O)(C(=O)OC)[C@H](OC(C)=O)[C@]5(CC)C=CCN6CC[C@]43[C@@H]65)C2)C1 [Vinblastine (sulfate)]	34.3
O=C(O)c1ccc(Nc2ncc3c(n2)-c2ccc(Cl)cc2C(c2c(F)cccc2F)=NC3)cc1 [MLN8054]	86.8
CC(CCc1ccccc1)NCC(O)c1ccc(O)c(C(N)=O)c1 (configuration not stated) [labetalol]	101
CCCCCCCCCCCCCCCCOc1nc2ccc(C)cc2c(=O)o1 [cetilistat]	107
C[C@H]1O[C@@H](n2cc(F)c(=O)[nH]c2=O)[C@H](O)[C@@H]1O [doxifluridine]	90.9
O=C(OCCN1CCCCC1)c1c[nH]c2ccccc12	91.3

====

A collection of molecules and their measured cell viability
Test system: U2OS
Experiment: cell viability relative to DMSO; higher = less toxic
Conditions: 72 h; 100 nM

molecule	cell viability (%)
O=C(O)CNC(=O)c1ccccc1I [2-iodohippuric-acid]	97.8
CO[C@H]1CC[C@H](N2C(=O)CNc3ncc(-c4ccc(C(C)(C)O)nc4)nc32)CC1 [CC-223]	102
N#Cc1cccc(-c2nc(-c3cccnc3)no2)c1 [NS-9283]	97.1
COC(=O)Nc1nc2cc(C(=O)c3cccs3)ccc2[nH]1 [nocodazole]	70.4
O=c1[nH]cnc2nc[nH]c12 [hypoxanthine]	102
Cc1ccc2c(c1)C1(CCN(CCc3nc(-c4ccccc4)oc3C)CC1)OC(=O)N2	96.3
O=C(Nc1ncc(SCCN2CCCC2)s1)[C@]1(c2ccc(S(=O)(=O)C3CC3)cc2)C[C@H]1C1CCCCC1	104
CC1=CC(=O)c2ccccc2C1=O [menadione]	96.4
CCN(CC)CCCCNc1ncc2cc(-c3c(Cl)cccc3Cl)c(NC(=O)NC(C)(C)C)nc2n1	95.2
Nc1ncnc2c1ncn2[C@@H]1O[C@H](CO)[C@@H](O)[C@H]1O [adenosine]	98.2
CC(=O)OCC(=O)[C@@]1(O)CC[C@H]2[C@@H]3CCC4=CC(=O)CC[C@]4(C)[C@H]3[C@@H](O)C[C@@]21C [hydrocortisone-acetate]	93
CCc1cc(/C(C)=N/OCc2ccc(C3CCCCC3)c(C(F)(F)F)c2)ccc1CN1CC(C(=O)O)C1 [siponimod]	96.6
CN1CCC[C@@H]1CCSc1ccc(O)cc1 [SIB-1553A]	97.1
CC[C@H](C)[C@H]1O[C@]2(CC[C@@H]1C)C[C@@H]1C[C@@H](C/C=C(\C)[C@@H](O[C@H]3C[C@H](OC)[C@@H](O[C@H]4C[C@H](OC)[C@@H](O)[C@H](C)O4)[C@H](C)O3)[C@@H](C)/C=C/C=C3\CO[C@@H]4[C@H](O)C(C)=C[C@@H](C(=O)O1)[C@]34O)O2 [ivermectin]	99.4
CN1Cc2c(C(=O)OC(C)(C)C)ncn2-c2ccsc2C1=O [Ro-19-4605]	95.4
CCSc1ccc2c(c1)N(CCCN1CCN(C)CC1)c1ccccc1S2 [thiethylperazine]	106
CC(C)n1cnc2c(C(=O)N[C@H]3CN4CCC3CC4)cc(Cl)cc21	97.1
